B1: CLCN6 (parent)
chain: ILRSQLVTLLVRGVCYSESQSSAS

Variants of: B1
Assay: protein stability index of a GFP-peptide fusion (GPS, HEK-293T) (PSI 1-6); higher = more stable;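 also: lentivirally expressed fusions sorted by FACS into six bins by GFP to DsRed ratio, PSI derived from sequencing read proportions per bin multiplied by bin number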
Conditions: c terminus: a fixed tail appended

# chainSequence, protein stability index
data = [
    ("ILRSQQVTLLVRGVCYSESQSSAS", 1.66),
    ("ILRSQLVTLLVRGVCYSESQSSTS", 2),
    ("ILRSQLVMLLVRGVCYSESQSSAS", 2.8),
    ("ILRSQLVTLLVRGVIYSESQSSAS", 3.23),
    ("IIRSQLVTLLVRGVCYSESQSSAS", 3.02),
    ("INRSQLVTLLVRGVCYSESQSSAS", 2.06),
    ("ILRSQYVTLLVRGVCYSESQSSAS", 2.02),
    ("ILRSQLVTLLVRGVCYSESQASAS", 3.29),
    ("ILRSQLVTLLVRGVCYSESQSSNS", 4.11),
    ("ILISQLVTLLVRGVCYSESQSSAS", 3.78),
    ("ILRSQLVTLLVHGVCYSESQSSAS", 4.29),
    ("ILRSQPVTLLVRGVCYSESQSSAS", 2.04),
    ("ILRSQLVTLLVRGVCYSESQSMAS", 3.01),
    ("ILRSTLVTLLVRGVCYSESQSSAS", 2.06),
    ("ILRSQLVTLLVRGVCYSESYSSAS", 3.72),
    ("ILRSQLVTLLVRGVCYFESQSSAS", 2.25),
    ("ILRSQLVTLLVRGVCYSESQSSQS", 3.96),
    ("ILRSQLVTLLKRGVCYSESQSSAS", 2),
    ("ILRSQLVTLLVRGVAYSESQSSAS", 3.2),
    ("ILRSQLVTLLVTGVCYSESQSSAS", 2.56),
    ("ILRSPLVTLLVRGVCYSESQSSAS", 2.72),
    ("ILRSQLVTLLVREVCYSESQSSAS", 1.72),
]
